meta.source: patent US11807625B2

test_summary: PK of compound of Formula (Ia) after single subcutaneous dose of solution formulations in Wistar Han rats
Format: in vivo
run_conditions: male, Wistar Han, rat, plasma, sc, 50 mg/kg, Wistar Han rats, SC 50 mg/kg, 400 mg/mL solution AA (6.25% poloxamer 188), 3024 h, Mean n = 4
Description: Formulations containing the compound of Formula (Ia), or a pharmaceutically acceptable salt thereof, were prepared as solutions and optionally administered subcutaneously or intramuscularly to rats, rabbits, and/or dogs. A solution of about 400 mg/mL of the compound of Formula (Ia) having 19.14 w/w % water, 40.66 w/w % PEG 300, 35.20 w/w % of a sodium salt of a compound of Formula (Ia), and 5.00% ethanol was prepared. […]
readout_name: concentration at 3024 h
Record the result as number plus unit.

Form field concentration at 3024 h, entry CC(C)(C#Cc1ccc(-c2ccc(Cl)c3c(NS(C)(=O)=O)nn(CC(F)(F)F)c23)c([C@H](Cc2cc(F)cc(F)c2)NC(=O)Cn2nc(C(F)(F)F)c3c2C(F)(F)[C@@H]2C[C@H]32)n1)S(C)(=O)=O : 69.8 nM
